Hey, just so you know, these numbers are from patent US11999727B2.

pIC50 overview
Target: PRMT5 (Homo sapiens)
Construct: purchased Viva (custom protein)
Sequence (O14744 whole entry): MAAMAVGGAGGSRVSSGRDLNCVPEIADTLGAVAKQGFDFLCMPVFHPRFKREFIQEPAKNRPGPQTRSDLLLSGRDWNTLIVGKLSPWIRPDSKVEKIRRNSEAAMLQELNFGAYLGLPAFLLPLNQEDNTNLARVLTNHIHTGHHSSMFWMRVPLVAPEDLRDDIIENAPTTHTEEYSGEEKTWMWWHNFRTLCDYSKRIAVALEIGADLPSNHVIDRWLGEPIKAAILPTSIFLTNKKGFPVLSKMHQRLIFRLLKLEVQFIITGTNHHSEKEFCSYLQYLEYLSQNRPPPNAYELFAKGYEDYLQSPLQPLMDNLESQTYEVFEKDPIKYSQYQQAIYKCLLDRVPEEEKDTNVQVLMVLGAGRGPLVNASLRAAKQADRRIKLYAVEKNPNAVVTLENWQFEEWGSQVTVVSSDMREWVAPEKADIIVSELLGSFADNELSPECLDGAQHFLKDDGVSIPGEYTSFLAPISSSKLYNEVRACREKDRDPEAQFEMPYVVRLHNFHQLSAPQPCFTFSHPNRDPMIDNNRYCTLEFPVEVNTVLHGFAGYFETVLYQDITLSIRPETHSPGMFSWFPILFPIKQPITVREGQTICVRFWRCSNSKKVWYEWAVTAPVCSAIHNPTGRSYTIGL
Sequence (Q9BQA1 whole entry partner): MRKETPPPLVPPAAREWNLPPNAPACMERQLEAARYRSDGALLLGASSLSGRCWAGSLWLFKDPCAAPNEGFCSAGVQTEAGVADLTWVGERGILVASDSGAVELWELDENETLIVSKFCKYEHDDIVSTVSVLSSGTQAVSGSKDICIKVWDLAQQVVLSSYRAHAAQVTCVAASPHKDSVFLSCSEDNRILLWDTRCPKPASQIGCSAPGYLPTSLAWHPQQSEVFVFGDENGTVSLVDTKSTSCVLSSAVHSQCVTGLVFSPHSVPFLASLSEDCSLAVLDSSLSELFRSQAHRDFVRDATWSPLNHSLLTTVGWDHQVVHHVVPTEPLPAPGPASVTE
Assay: PRMT5 biochemical IC50 assay with no cofactor
Settings: PRMT5, no cofactor; read-out: No Cofactor/rel IC50
pIC50: −log10 of the molar value.

{"compound": "CCc1nc2cc([C@@H]3CC[C@@H](C)CN3C(=O)C(=O)Nc3cnc(N)c(C)c3)ccc2s1 (racemic) [Compound 1184]", "tested target": "PRMT5 (Homo sapiens)", "pIC50": "6.30 to 7.30"}

Form: compound = C[C@@H]1CC[C@@H](c2cc3cn[nH]c3cc2F)N(C(=O)C(=O)Nc2cncc(C(N)=O)c2)C1 (single isomer, unassigned) [Compound 571] ; pIC50 = < 6.30

Entry CC(=O)Nc1ccc([C@@H]2CC[C@@H](C)CN2C(=O)C(=O)Nc2cncc(C(N)=O)c2)cc1 (single isomer, unassigned) [Compound 451] — recorded pIC50 = 6.30 to 7.30
